Each entry below carries its reported Ki.
molecular target: UniProtKB P08254; assay: Inhibition of recombinant stromelysin catalytic domain (SCD)
Sequence (P08254 whole entry, the tested form may be a part): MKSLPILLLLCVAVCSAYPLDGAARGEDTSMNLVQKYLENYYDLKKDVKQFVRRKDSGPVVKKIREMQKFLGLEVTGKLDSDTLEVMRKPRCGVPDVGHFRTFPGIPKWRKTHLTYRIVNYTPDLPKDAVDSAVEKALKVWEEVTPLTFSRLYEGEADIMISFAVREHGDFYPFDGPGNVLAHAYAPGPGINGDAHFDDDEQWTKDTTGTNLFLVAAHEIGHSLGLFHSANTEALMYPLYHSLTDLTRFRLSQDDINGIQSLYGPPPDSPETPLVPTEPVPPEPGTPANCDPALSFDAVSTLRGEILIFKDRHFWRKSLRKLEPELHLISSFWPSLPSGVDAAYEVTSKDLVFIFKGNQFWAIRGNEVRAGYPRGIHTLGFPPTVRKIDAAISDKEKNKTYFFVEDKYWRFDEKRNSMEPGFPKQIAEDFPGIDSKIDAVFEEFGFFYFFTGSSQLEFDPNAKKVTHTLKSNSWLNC
In your response, put the unit directly after the numeric value.

Known results for compounds:
O=C(/C=C/c1ccco1)N[C@@H](Cc1c[nH]c2ccccc12)C(=O)O = 120 µM
O=C(N[C@@H](Cc1ccccc1)C(=O)O)OCc1ccccc1 = 33 µM
CC(C)(C)OC(=O)N[C@@H](Cc1c[nH]c2ccccc12)C(=O)O = 8 µM
CC(C)(C)OC(=O)N[C@@H](Cc1c[nH]c2ccccc12)C(=O)ON1C(=O)CCC1=O = 84 µM
O=C(N[C@@H](Cc1c[nH]c2ccccc12)C(=O)ON1C(=O)CCC1=O)OCc1ccccc1 = 11 µM
Cc1cc(C)c(S(=O)(=O)n2cc(C[C@H](NC(=O)OC(C)(C)C)C(=O)O)c3ccccc32)c(C)c1 = 52 µM
O=C(N[C@@H](Cc1ccc(O)cc1)C(=O)O)OCc1ccccc1 = 20 µM
CC(C)(C)OC(=O)N[C@@H](Cc1cn(C=O)c2ccccc12)C(=O)O = 28 µM

# input for lookup
Ki in this record for O=C(N[C@H](Cc1ccc(O)cc1)C(=O)O)OCc1ccccc1 : 356 µM
